Tested on: MCF7 breast
Experiment: NCI-60 one-dose screen, 48 h
Settings: 10 µM unless noted
The panel holds about 83,000 compounds, 20% with a hit somewhere; the sample as a whole holds those more often. Calls of active or inactive are those of the source. The calls were made as follows: active = growth percent below 10; inactive = the rest.
Classes used: Yes for active, No for inactive

compound	class name
O=C(/C=C(O)/C=C/c1ccc(SC(F)(F)F)cc1)/C=C/c1ccc(SC(F)(F)F)cc1	No
O=C(Nc1ccccc1C(=O)N/N=C(\c1ccccc1)c1ccccn1)c1ccc(F)cc1	No
C=C(C)[C@@H]1CC[C@]2(C(=O)N3CCN(C)CC3)CC[C@]3(C)[C@H](CC[C@@H]4[C@@]5(C)C/C(=C/c6ccncc6)C(=O)C(C)(C)[C@@H]5CC[C@]43C)[C@@H]12	No
COc1cc2c3c(c4c5ccccc5[nH]c4c2c(OC)c1OC)C(=O)N(CCN1CCOCC1)C3=O	No
CC(Sc1nc2ccccc2c(=O)n1CCc1ccc(S(N)(=O)=O)cc1)C(=O)Nc1ccc(Cl)cc1 (stereo not given)	No
Cc1cnc(C(=O)Nc2nc3ccc(S(=O)(=O)Nc4ccc(C5(C(F)(F)F)CC5)cc4)cc3[nH]2)cn1	No
COc1ccc(C/C(=C(\C)c2ccc(OCCN3CCCC3)cc2)c2ccc(OCCN3CCCC3)cc2)cc1	Yes
C/C(=N\NC(=O)CSc1nc2ccccc2c(=O)n1Cc1ccc(S(N)(=O)=O)cc1)c1ccc(F)cc1	No
Fc1ccc2c(-c3cncn3CCc3ccccc3)c[nH]c2c1	No
NC1=NN=C(N)C1=Cc1cc2ccccc2n2nnnc12	No
C=C(C)[C@@H]1CC[C@]2(C(=O)N3CCN(C)CC3)CC[C@]3(C)[C@H](CC[C@@H]4[C@@]5(C)CC[C@H](OCCC#N)C(C)(C)[C@@H]5CC[C@]43C)[C@@H]12	No
CCCNC(=O)Oc1ccc(/C(=C(\C)c2ccccc2)c2ccc(OCCCN(C)C)cc2)cc1	No
O=C1c2ccc3c4c(ccc(c24)C(=O)N1CCCNCc1ccccc1F)C(=O)N(CCCNCc1ccccc1F)C3=O	Yes
CC(=O)[C@H]1CCC/C=C/[C@@H]2C[C@H](O)C[C@H]2[C@H](O)/C=C/C(=O)O1	Yes
O=C1Nc2ccccc2/C1=C\c1c(-c2ccccc2)nc2ccccn12	No
NC(=O)Nc1ccc(-n2cnc3cc(-c4ccc(O)cc4)ccc32)cc1	No
Cc1ccc(-n2c3c(c(-c4ccccc4)c2-c2ccccc2)C2=NCCN2C=N3)cc1	No
COc1cc2c(cc1OC)C(=O)/C(=C/c1cc(C)c(O)c(C)c1)S2	No
OC(c1ccc(F)c(C(F)(F)F)c1)c1cnccc1NC1CCCCC1 (stereo not given)	No
Cc1ccc(CNc2c3ccccc3nc3cc(NC(=O)CCN4CCCC4)ccc23)cc1	Yes
COc1ccc(CC(C)=C(c2ccc(OCCN3CCCCCC3)cc2)c2ccc(OCCN3CCCCCC3)cc2)cc1	Yes
O=C1NN(C(=O)c2ccccc2)C(c2ccc(Cl)c(Cl)c2)=C/C1=C\c1ccc([N+](=O)[O-])cc1	No
CCCCCCNC(=O)Nc1ccc2cc3ccc(NC(=O)NCCCCCC)cc3nc2c1	Yes
O=C1Nc2ccccc2/C1=C\c1c(-c2ccc(F)cc2)nc2ccccn12	No
Cc1cnc(C(=O)Nc2nc3ccc(S(=O)(=O)Nc4ccc(C(C)(C)C)cc4)cc3[nH]2)cn1	No
CNC(=O)c1cncc(Cn2nc(C)c(NC(=O)c3ccc(COc4ccc(C(F)(F)F)cc4C)cc3)c2C)c1	No
COc1cc2oc(-c3cccc(C(=O)Nc4ccc(Cl)cc4)c3)cc(=O)c2c(O)c1OC	No
CCc1ccc(-c2cn3ccnc3c(-c3ccc4ncn(Cc5ccccc5)c4c3)n2)cc1	No
O=[N+]([O-])c1ccc(N=Nc2cc(S(=O)(=O)O)c3cccc(S(=O)(=O)O)c3c2O)cc1	No
Cn1ccnc1C(=O)/C=C/c1ccc(CC(=O)Nc2ccc(Cl)cc2)cc1	No
CC(C)N1C(=O)/C(=C2\SC(=S)N(C(C)C)C2=O)SC1=S	No
COc1ccccc1/C(C)=N/NC(=O)CSc1nc2ccccc2c(=O)n1Cc1ccc(S(N)(=O)=O)cc1	No
CN[C@@H](C)C(=O)N[C@H]1CCS[C@H]2CC(C)(C)[C@@H](C(=O)N[C@H]3c4ccccc4C[C@H]3OCC#CC#CCO[C@@H]3Cc4ccccc4[C@@H]3NC(=O)[C@H]3N4C(=O)[C@@H](NC(=O)[C@H](C)NC)CCS[C@H]4CC3(C)C)N2C1=O	No
CCNc1nc2cc(Nc3ccnc4cc(Cl)ccc34)ccc2o1	No
ClC1=C(Br)C(Br)(Br)C(=C(Br)Br)C1(Br)Br	No

====

System: BT-549 breast
Assay: NCI-60 one-dose screen, 48 h (100 = growth as untreated, 0 = no growth, -100 = all killed)
Conditions: 10 µM unless noted
Experimental: Growth inhibition of the BT-549 human tumor cell line is measured as a screen for anti-cancer activity. Cells are grown in 96 well plates and exposed to the test compound for 48 hours. Compounds are tested at a single concentration, which is 10^-5 M for most compounds. The reported endpoint is percent growth (GI% or GIPRCNT), where numbers from 0 - 100% represent growth inhibition, and numbers from -100% - 0 represent cell death. For example, a value of 40 represents 60% growth inhibition. […]
This is part of a sample that, as a whole, favours compounds with a hit. Of some 83,000 tested, about 20% had one in any assay.
Consider the following compounds and their measured growth readings.
measure: growth (%)

structure	measured target	u	obs value
CCOC(=O)Oc1c(OC)cc(C(=O)c2ccc(OC)c(O)c2OC)cc1OC	BT-549 breast	%	40.1
COc1ccccc1/C(C)=N/NC(=O)CSc1nc2ccccc2c(=O)n1Cc1ccc(S(N)(=O)=O)cc1	BT-549 breast	%	99.3
COc1cccc2c1c1nc3cc(C)c(C)cc3nc1n2CCN(C)C	BT-549 breast	%	68.8
O=C(CSc1nc2sc3c(c2c(=O)n1-c1ccc(Cl)cc1)CCCC3)Nc1nc(-c2cccc(Br)c2)cs1	BT-549 breast	%	92.1
C=C(CBr)[C@@H]1CC[C@]2(COC(C)=O)CC[C@]3(C)[C@H](CC[C@@H]4[C@@]5(C)CCCNC(C)(C)[C@@H]5CC[C@]43C)[C@@H]12	BT-549 breast	%	36.2
CCCCCN1C=C/C(=C\C(=O)n2ccc3ccccc32)c2ccccc21	BT-549 breast	%	96.9
CCOC(=O)c1cc(C#N)n2ccc3ccccc3c12	BT-549 breast	%	113
Cc1cccc(C)c1N=c1oc2ccc(Cl)cc2nc1-c1ccccc1O	BT-549 breast	%	107
COc1ccc(C(=O)c2nc3ccccc3n2CC(=O)c2ccc(Cl)cc2)cc1	BT-549 breast	%	47.9
COc1ccc(-c2cnc3c(-c4cccc5ncccc45)cnn3c2)cc1	BT-549 breast	%	37.1

====

Tested on: OVCAR-5 ovarian
Test: NCI-60 one-dose screen, 48 h
Settings: 10 µM unless noted
About 83,000 compounds went through this panel and 20% of them were active in at least one assay; those are over-represented in the sample as a whole. The source made the active and inactive calls. The calls were made as follows: active = growth percent below 10; inactive = the rest.
Classes used: active, inactive

molecule	measured target	class name
CN(C)CCn1c2ccc(Br)cc2c2nc3ccccc3nc21	OVCAR-5 ovarian	inactive
Cn1cc(-c2nc(-c3c[nH]c4c(Cl)nccc34)cs2)c2cc(Br)ccc21	OVCAR-5 ovarian	inactive
COc1ccc(C(C)=O)c(OC)c1	OVCAR-5 ovarian	inactive
Cc1ccc(-n2cc(-c3ccccc3)c3c2N=NN2CCN=C32)cc1	OVCAR-5 ovarian	inactive
Cn1ccnc1C(=O)/C=C/c1ccc(CC(=O)Nc2ccc(Cl)cc2)cc1	OVCAR-5 ovarian	inactive
Brc1ccc2[nH]cc(-c3cncn3CCc3ccccc3)c2c1	OVCAR-5 ovarian	inactive
Nc1c(C(=O)Nc2cccc3cnccc23)sc2nc3c(cc12)C(=O)CCC3	OVCAR-5 ovarian	inactive
CCNC(=O)Oc1ccc(/C(=C(\C)c2ccccc2)c2ccc(OCCN3CCCCC3)cc2)cc1	OVCAR-5 ovarian	inactive
CCNc1nc2cc(Nc3ccnc4cc(Cl)ccc34)ccc2o1	OVCAR-5 ovarian	inactive
COc1cc(C=O)ccc1OC1OC(COC(C)=O)C(OC(C)=O)C(OC(C)=O)C1OC(C)=O (stereo unspecified)	OVCAR-5 ovarian	inactive
CC1(C)CC(=O)C2=C(C1)N(c1ccc(F)cc1F)C(N)=C(C#N)C2c1cc(Br)ccc1F (stereo unspecified)	OVCAR-5 ovarian	inactive
COc1ccc(OC)c(-c2cc(-c3ccc(Cl)cc3)c3c(N)c(C(=O)c4ccc(Cl)cc4)sc3n2)c1	OVCAR-5 ovarian	inactive
CC(=O)N1c2ccccc2NC2=C(C(=O)NC2(C)C)C1c1ccco1 (stereo unspecified)	OVCAR-5 ovarian	inactive
CN(C)c1ccc(Nc2c3ccccc3nc3cc(NC(=O)CCN4CCCC4)ccc23)cc1	OVCAR-5 ovarian	inactive
Cc1cc(C(=O)/C=C/c2ccc[nH]2)ccc1-n1ccc(C(F)(F)F)n1	OVCAR-5 ovarian	inactive
CCOC(=O)Oc1c(OC)cc(C(=O)c2ccc(OC)c(O)c2OC)cc1OC	OVCAR-5 ovarian	inactive
O=C(Nc1ccc(Cl)cc1)c1cc(NCc2cc(O)ccc2O)ccc1O	OVCAR-5 ovarian	inactive
C[C@@H](Nc1ncnc2ccc(-c3cnc(N)nc3)cc12)c1ccc(F)cc1	OVCAR-5 ovarian	inactive
CCN1C(=O)N(CC)C2Nn3c(s/c(=C\c4ccc(OC)cc4)c3=O)=NC21 (stereo unspecified)	OVCAR-5 ovarian	inactive
C#Cc1cccc(NC(=O)c2cccc(NC(=O)CCl)c2)c1	OVCAR-5 ovarian	active
CCCCCCNC(=O)Oc1ccc(/C(=C(\C)c2ccccc2)c2ccc(OCCCN(C)C)cc2)cc1	OVCAR-5 ovarian	inactive
